target: AchR (Homo sapiens, UniProt P02708); test: ELISA of screened peptide phages on AchR versus streptavidin (OD450); assay type: binding; details: ELISA of selected 14-mer (L3) peptide phages on AchR, absorbance at 450 nm; Spep-2 positive control
Sequence (P02708 21-457): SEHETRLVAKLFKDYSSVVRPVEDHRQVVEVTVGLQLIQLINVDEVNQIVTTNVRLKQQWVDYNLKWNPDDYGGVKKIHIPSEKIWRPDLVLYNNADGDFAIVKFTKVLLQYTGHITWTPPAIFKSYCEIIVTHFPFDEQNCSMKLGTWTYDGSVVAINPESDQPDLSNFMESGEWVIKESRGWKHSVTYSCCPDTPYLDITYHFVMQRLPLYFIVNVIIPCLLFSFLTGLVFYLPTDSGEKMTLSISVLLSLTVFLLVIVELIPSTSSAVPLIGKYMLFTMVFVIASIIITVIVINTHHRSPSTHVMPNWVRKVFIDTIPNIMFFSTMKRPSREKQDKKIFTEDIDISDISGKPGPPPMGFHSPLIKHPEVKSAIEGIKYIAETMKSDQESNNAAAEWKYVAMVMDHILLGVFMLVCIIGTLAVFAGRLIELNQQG
Parameter: OD. Scope: all listed entries.
Observed property: OD

Substance	Recorded result
L3-75 (QIPKQKKQEQRAIS; AchR binding peptide) [Peptide L3-75]	0.72
L3-42 (ETNRTRKQCYKTTF; AchR binding peptide) [Peptide L3-42]	0.71
L3-37: 14-mer optimized peptide of the L3 library (Table 12, not shown here) (SNVKRKRGRCKPYR; AchR binding peptide) [Peptide L3-37]	0.69
L3-118 (YGIRDRRPMTKHTQ; AchR binding peptide) [Peptide L3-118]	0.69
L3-53 (HCLRTKKLINKICS; AchR binding peptide) [Peptide L3-53]	0.679
